Target: T1, MIS12 complex (Mis12, Pmf1, Dsn1, Nsl1), wild type, full length (Homo sapiens, UniProt Q9H081 1-205; Q6P1K2 1-205; Q9H410 1-356; Q96IY1 1-281)
T1 construct: Mis12, subunit of human MIS12C; Pmf1, subunit of human MIS12C; Dsn1, subunit of human MIS12C; Nsl1, subunit of human MIS12C; The DS tag on Pmf1 is TEV cleavable; a cleavage is not described; also called MIS12C (WT); wild-type MIS12C; source: High-5 insect cells (baculovirus), purified (Strep-Tactin, Resource S, Superdex 200); copies: + + +
T1 sequence (looked up) 1: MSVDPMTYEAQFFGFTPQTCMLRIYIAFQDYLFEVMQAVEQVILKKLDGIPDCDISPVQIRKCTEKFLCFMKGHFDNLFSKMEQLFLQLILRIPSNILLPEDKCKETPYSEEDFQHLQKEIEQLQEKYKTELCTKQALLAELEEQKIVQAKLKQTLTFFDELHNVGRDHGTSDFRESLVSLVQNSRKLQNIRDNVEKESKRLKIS
T1 sequence (looked up) 2: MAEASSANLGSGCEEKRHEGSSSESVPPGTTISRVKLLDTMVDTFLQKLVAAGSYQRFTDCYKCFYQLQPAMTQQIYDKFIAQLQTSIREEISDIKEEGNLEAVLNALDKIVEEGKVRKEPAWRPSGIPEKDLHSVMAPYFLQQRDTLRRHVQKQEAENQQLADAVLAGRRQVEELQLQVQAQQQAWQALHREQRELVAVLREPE
T1 sequence (looked up) 3: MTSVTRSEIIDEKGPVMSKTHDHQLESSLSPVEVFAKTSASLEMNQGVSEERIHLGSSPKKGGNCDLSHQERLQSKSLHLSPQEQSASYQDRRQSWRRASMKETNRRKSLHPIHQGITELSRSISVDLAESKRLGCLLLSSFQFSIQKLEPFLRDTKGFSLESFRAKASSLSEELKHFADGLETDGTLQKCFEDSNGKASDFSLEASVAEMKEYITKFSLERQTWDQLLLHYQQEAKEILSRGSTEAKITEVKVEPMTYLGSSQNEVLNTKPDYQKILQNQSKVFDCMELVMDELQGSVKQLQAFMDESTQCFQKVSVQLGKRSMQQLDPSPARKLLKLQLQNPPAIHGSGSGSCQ
T1 sequence (looked up) 4: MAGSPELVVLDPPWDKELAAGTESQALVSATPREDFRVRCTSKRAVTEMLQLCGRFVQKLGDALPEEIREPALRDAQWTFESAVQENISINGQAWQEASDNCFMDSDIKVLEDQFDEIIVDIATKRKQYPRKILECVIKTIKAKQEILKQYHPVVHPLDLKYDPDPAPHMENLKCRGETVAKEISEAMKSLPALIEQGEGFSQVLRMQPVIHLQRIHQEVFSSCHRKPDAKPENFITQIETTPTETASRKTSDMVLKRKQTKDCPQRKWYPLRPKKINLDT
Assay: ITC; peptide in the syringe titrated into the MIS12C variant in the cell; 20 °C; 20 mM HEPES pH 7.5, 100 mM NaCl, 1 mM TCEP; single-site binding model; duplicate or triplicate
Details: both partners purified
measured endpoint: Kd
Please state the number and follow it with the unit.

Req: If you can, please state the reported Kd value of Ac-AASGLDHLKNGYRRRFCRPSRA-NH2 (CENP-C, human, named residues 2-22; also called N-terminal region of CENP-C (residues 2–22); source: synthetic peptide (Biosynth)) [CENP-C^2–22 peptide] .
Resp: 485 nM
